Overview of reported pKi across a group of molecules:
- protocol.notes: Inhibition of HCV3a NS3/4A protease
- Parameters: species or system Hepatitis C virus subtype 3a
Units for pKi: none; it is -log10 of a concentration expressed in mol/L.

Guide cases for pKi, answers given:
[
  {
    "molecule": "C=C[C@@H]1C[C@]1(NC(=O)[C@@H]1C[C@@H]2CN1C(=O)[C@H](C(C)C)NC(=O)N(C)CCCCCc1cc3c(cc(-c4ccccc4)nc3cc1OC)O2)C(=O)NS(=O)(=O)C1CC1",
    "experimental.result": 8.24
  },
  {
    "molecule": "C=C[C@@H]1C[C@]1(NC(=O)[C@@H]1C[C@@H]2CN1C(=O)[C@H](C1CCCC1)NC(=O)OCC(C)(C)C/C=C/c1cc3c(cc(-c4ccccc4)nc3cc1OC)O2)C(=O)NS(=O)(=O)C1CC1",
    "experimental.result": 7.77
  },
  {
    "molecule": "C=C[C@@H]1C[C@]1(NC(=O)[C@@H]1C[C@@H]2CN1C(=O)[C@H](C(C)(C)C)NC(=O)OCCC/C=C/c1ccc3ccnc(c3c1)O2)C(=O)NS(=O)(=O)C1CC1",
    "experimental.result": 6.32
  }
]

We now examine a further molecule.
Ask | Would you mind telling me what pKi value was observed for CC[C@@H]1C[C@]1(NC(=O)[C@@H]1C[C@@H]2CN1C(=O)[C@H](C(C)(C)C)NC(=O)OCC(C)(C)CCCCc1cccc3c1CN(C3)C(=O)O2)C(=O)NS(=O)(=O)C1CC1 [VANIPREVIR] ?
Reply | 7.27

* * *

- protocol.notes: Inhibition of HCV1b BK NS3/4A protease expressed in Escherichia coli after 1 hr by time-resolved fluorescence assay
- Set-up: species or system Hepatitis C virus (isolate BK)
Hi! Just check whether Ki is below 0.04 nM. Below gives 1, equal or above gives 0.

[
  {
    "compound.string": "C=C[C@@H]1C[C@]1(NC(=O)[C@@H]1C[C@@H]2CN1C(=O)[C@H](C1CCCCC1)NC(=O)OCC(C)(C)CCCc1cc3c(cc(OCC)nc3cc1OC)O2)C(=O)NS(=O)(=O)C1CC1",
    "classification": 0
  },
  {
    "compound.string": "C=C[C@@H]1C[C@]1(NC(=O)[C@@H]1C[C@@H]2CN1C(=O)[C@H](C1CCCCC1)NC(=O)OCC(C)(C)CCCc1cc3c(cc(NC4CCCCC4)nc3cc1OC)O2)C(=O)NS(=O)(=O)C1CC1",
    "classification": 0
  },
  {
    "compound.string": "C=C[C@@H]1C[C@]1(NC(=O)[C@@H]1C[C@@H]2CN1C(=O)[C@H](C1CCCC1)NC(=O)OCC(C)(C)CCCc1cc3c(nc4cc(C#N)ccc4c3cc1OC)O2)C(=O)NS(=O)(=O)C1CC1",
    "classification": 1
  }
]

Ask | Identify whether the molecule `C=C[C@@H]1C[C@]1(NC(=O)[C@@H]1C[C@@H]2CN1C(=O)[C@H](C1CCCCC1)NC(=O)OCC(C)(C)CCCc1cc3c(cc(-c4ccc(F)cc4)nc3cc1OC)O2)C(=O)NS(=O)(=O)C1CC1` records Ki below 0.04 nM.
Reply | 0

Ask | Identify whether the molecule `C=C[C@@H]1C[C@]1(NC(=O)[C@@H]1C[C@@H]2CN1C(=O)[C@H](C1CCCC1)NC(=O)OCC(C)(C)CCCc1cc3c(nc4ccc(Cl)cc4c3cc1OC)O2)C(=O)NS(=O)(=O)C1CC1` records Ki below 0.04 nM.
Reply | 1

Ask | Identify whether the molecule `C=C[C@@H]1C[C@]1(NC(=O)[C@@H]1C[C@@H]2CN1C(=O)[C@H](C1CCCCC1)NC(=O)OCC(C)(C)CCCc1cc3c(cc(N4CCCCC4)nc3cc1OC)O2)C(=O)NS(=O)(=O)C1CC1` records Ki below 0.04 nM.
Reply | 0

* * *

- protocol.notes: Inhibition of HCV3a NS3/4A protease by time-resolved fluorescence assay
- Design: species or system Hepatitis C virus subtype 3a
Overview of reported Ki across a group of compounds:
Answer in nM, number only, no unit symbol.

[
  {
    "compound.string": "C=C[C@@H]1C[C@]1(NC(=O)[C@@H]1C[C@@H]2CN1C(=O)[C@H](C1CCCCC1)NC(=O)OCC(C)(C)CCCc1cc3c(cc(OC4CCCC4)nc3cc1OC)O2)C(=O)NS(=O)(=O)C1CC1",
    "experimental.result": 15
  },
  {
    "compound.string": "C=C[C@@H]1C[C@]1(NC(=O)[C@@H]1C[C@@H]2CN1C(=O)[C@H](C1CCCCC1)NC(=O)OCC(C)(C)CCCc1cc3c(cc(-c4ccc(OC)cc4)nc3cc1OC)O2)C(=O)NS(=O)(=O)C1CC1",
    "experimental.result": 18
  }
]

We now examine a further compound.
Ask | Would you mind telling me what Ki value was observed for `C=C[C@@H]1C[C@]1(NC(=O)[C@@H]1C[C@@H]2CN1C(=O)[C@H](C1CCCCC1)NC(=O)OCC(C)(C)CCCc1cc3c(cc(NC)nc3cc1OC)O2)C(=O)NS(=O)(=O)C1CC1` ?
Reply | 5.4

* * *

- protocol.notes: Inhibition of HCV3a NS3/4A protease by time-resolved fluorescence assay
- Design: species or system Hepatitis C virus subtype 3a
Overview of reported pKi across a group of compounds:
Units for pKi: none; it is -log10 of a concentration expressed in mol/L.

[
  {
    "compound.string": "C=C[C@@H]1C[C@]1(NC(=O)[C@@H]1C[C@@H]2CN1C(=O)[C@H](C1CCCC1)NC(=O)OCC(C)(C)CCCc1cc3c(cc(OCC)nc3cc1OC)O2)C(=O)NS(=O)(=O)C1CC1",
    "parameter.measured": "pKi",
    "experimental.result": 8.66
  },
  {
    "compound.string": "C=C[C@@H]1C[C@]1(NC(=O)[C@@H]1C[C@@H]2CN1C(=O)[C@H](C1CCCCC1)NC(=O)OCC(C)(C)CCCc1cc3c(cc4nccn4c3cc1OC)O2)C(=O)NS(=O)(=O)C1CC1",
    "parameter.measured": "pKi",
    "experimental.result": 8.74
  },
  {
    "compound.string": "C=C[C@@H]1C[C@]1(NC(=O)[C@@H]1C[C@@H]2CN1C(=O)[C@H](C1CCCC1)NC(=O)OCC(C)(C)CCCc1cc3c(cc(OCc4ncn(C)n4)nc3cc1OC)O2)C(=O)NS(=O)(=O)C1CC1",
    "parameter.measured": "pKi",
    "experimental.result": 9.00
  },
  {
    "compound.string": "C=C[C@@H]1C[C@]1(NC(=O)[C@@H]1C[C@@H]2CN1C(=O)[C@H](C1CCCC1)NC(=O)OCC(C)(C)CCCc1cc3c(nc4cc(C#N)ccc4c3cc1OC)O2)C(=O)NS(=O)(=O)C1CC1",
    "parameter.measured": "pKi",
    "experimental.result": 9.10
  }
]

Ask | Would you mind telling me what pKi value was observed for `C=C[C@@H]1C[C@]1(NC(=O)[C@@H]1C[C@@H]2CN1C(=O)[C@H](C1CCCC1)NC(=O)OCC(C)(C)CCCc1cc3c(nc4cc(OC)ccc4c3cc1OC)O2)C(=O)NS(=O)(=O)C1CC1` ?
Reply | 9.10

Ask | Would you mind telling me what pKi value was observed for `C=C[C@@H]1C[C@]1(NC(=O)[C@@H]1C[C@@H]2CN1C(=O)[C@H](C1CCCCC1)NC(=O)OCC(C)(C)CCCc1ccc3c(c1)c(cc1nccn13)O2)C(=O)NS(=O)(=O)C1CC1` ?
Reply | 8.28

* * *

- Tested on: Hepatitis C virus
- protocol.notes: Inhibition of HCV1b NS3/4A protease R155K mutant by time-resolved fluorescence assay
- Design: species or system Hepatitis C virus subtype 1b
parameter.measured: pKi
Units for pKi: none; it is -log10 of a concentration expressed in mol/L.

Guide cases for pKi, answers given:
[
  {
    "compound.string": "C=C[C@@H]1C[C@]1(NC(=O)[C@@H]1C[C@@H]2CN1C(=O)[C@H](C1CCCCC1)NC(=O)OCC(C)(C)CCCc1cc3c(cc(N(C)C(=O)OCC)nc3cc1OC)O2)C(=O)NS(=O)(=O)C1CC1",
    "study.system": "Hepatitis C virus",
    "parameter.measured": "pKi",
    "experimental.result": 8.48
  },
  {
    "compound.string": "C=C[C@@H]1C[C@]1(NC(=O)[C@@H]1C[C@@H]2CN1C(=O)[C@H](C1CCCCC1)NC(=O)OCC(C)(C)CCCc1cc3c(cc(OCc4csc(C)n4)nc3cc1OC)O2)C(=O)NS(=O)(=O)C1CC1",
    "study.system": "Hepatitis C virus",
    "parameter.measured": "pKi",
    "experimental.result": 8.68
  },
  {
    "compound.string": "C=C[C@@H]1C[C@]1(NC(=O)[C@@H]1C[C@@H]2CN1C(=O)[C@H](C1CCCC1)NC(=O)OCC(C)(C)CCCc1cc3c(cc(OCC)nc3cc1OC)O2)C(=O)NS(=O)(=O)C1CC1",
    "study.system": "Hepatitis C virus",
    "parameter.measured": "pKi",
    "experimental.result": 8.89
  }
]

We now examine a further compound.
Ask | Would you mind telling me what pKi value was observed for `C=C[C@@H]1C[C@]1(NC(=O)[C@@H]1C[C@@H]2CN1C(=O)[C@H](C1CCCC1)NC(=O)OCC(C)(C)CCCc1cc3c(nc4cc(OC)ccc4c3cc1OC)O2)C(=O)NS(=O)(=O)C1CC1` ?
Reply | 9.40
